biological target: PD-1/PD-L1 (Homo sapiens, UniProt Q9NZQ7); test: TR-FRET PD-1/PD-L1 binding inhibition at the molecular level (free proteins); settings: Tag1-PD-L1 and Tag2-PD-1 proteins, twelve concentrations from 200 nM, 2 hours at room temperature, read-out: FRET assay (IC50)
Sequence (Q9NZQ7 19-238 limits assumed): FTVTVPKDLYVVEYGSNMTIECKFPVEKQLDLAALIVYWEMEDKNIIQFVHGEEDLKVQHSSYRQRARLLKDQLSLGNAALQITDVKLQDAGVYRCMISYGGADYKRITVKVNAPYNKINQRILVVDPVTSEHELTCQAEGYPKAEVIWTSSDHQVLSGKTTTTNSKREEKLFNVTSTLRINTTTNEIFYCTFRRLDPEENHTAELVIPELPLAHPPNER
pIC50: −log10 of the molar value.
Collected pIC50 values appear next to each entry.

- compound: "Cc1c(Nc2nccc3cc(CN4CC[C@@H](O)C4)cnc23)cccc1-c1cccc(NC(=O)c2cc3n(n2)CCCC3O)c1Cl (stereo partly shown)"
  targetOrTestSystem: "PD-1/PD-L1 (Homo sapiens, UniProt Q9NZQ7)"
  pIC50: "7.00 to 8.00"
- compound: "O=C(Nc1cccc(-c2cccc(Nc3nccc4cc(CN5CC[C@@H](O)C5)cnc34)c2Cl)c1Cl)c1cc2n(n1)CCCC2NC1CCC(O)CC1 (stereo partly shown)"
  targetOrTestSystem: "PD-1/PD-L1 (Homo sapiens, UniProt Q9NZQ7)"
  pIC50: "7.00 to 8.00"
- compound: "O=C(Nc1cccc(-c2cccc(Nc3nccc4cc(CN5CC[C@@H](O)C5)cnc34)c2Cl)c1Cl)c1cc2n(n1)CCN(CCO)C2"
  targetOrTestSystem: "PD-1/PD-L1 (Homo sapiens, UniProt Q9NZQ7)"
  pIC50: "7.00 to 8.00"
- compound: "O=C(O)CN[C@@H]1CCCn2nc(C(=O)Nc3cccc(-c4cccc(Nc5nccc6cc(CN7CC[C@@H](O)C7)cnc56)c4Cl)c3Cl)cc21"
  targetOrTestSystem: "PD-1/PD-L1 (Homo sapiens, UniProt Q9NZQ7)"
  pIC50: "> 8.00"
- compound: "Cc1c(NC(=O)c2cc3n(n2)CCCC3O)cccc1-c1cccc(-c2nc3cc(CN4CC[C@@H](C(=O)O)C4)cc(C#N)c3o2)c1C (stereo partly shown)"
  targetOrTestSystem: "PD-1/PD-L1 (Homo sapiens, UniProt Q9NZQ7)"
  pIC50: "> 8.00"
- compound: "Cc1c(NC(=O)c2cc3n(n2)CCCC3NCC(=O)O)cccc1-c1cccc(NC(=O)c2nc3c(s2)CN(C)CC3)c1C (stereo not shown)"
  targetOrTestSystem: "PD-1/PD-L1 (Homo sapiens, UniProt Q9NZQ7)"
  pIC50: "> 8.00"
- compound: "COc1cc(-c2cccc(-c3cccc(NC(=O)c4cc5n(n4)CCC[C@H]5NCC(=O)O)c3Cl)c2Cl)cc(F)c1CN1CC[C@@H](O)C1"
  targetOrTestSystem: "PD-1/PD-L1 (Homo sapiens, UniProt Q9NZQ7)"
  pIC50: "> 8.00"
- compound: "O=C(Nc1cccc(-c2cccc(Nc3nccc4nccnc34)c2Cl)c1Cl)c1cc2n(n1)CCC[C@@H]2N1CC(C(=O)O)C1"
  targetOrTestSystem: "PD-1/PD-L1 (Homo sapiens, UniProt Q9NZQ7)"
  pIC50: "> 8.00"
- compound: "Cc1c(NC(=O)c2cc3n(n2)CCCC3NCCO)cccc1-c1cccc(Nc2nccc3cc(CN4CC[C@@H](O)C4)cnc23)c1Cl (stereo partly shown)"
  targetOrTestSystem: "PD-1/PD-L1 (Homo sapiens, UniProt Q9NZQ7)"
  pIC50: "> 8.00"
- compound: "CN[C@H]1CCCn2nc(C(=O)Nc3cccc(-c4cccc(Nc5nc(C(F)(F)F)nc6cc(CN7CC[C@@H](O)C7)cnc56)c4Cl)c3Cl)cc21"
  targetOrTestSystem: "PD-1/PD-L1 (Homo sapiens, UniProt Q9NZQ7)"
  pIC50: "7.00 to 8.00"
- compound: "COc1cc(-c2cccc(-c3cccc(NC(=O)c4cc5n(n4)CCCC5NCC(=O)O)c3Cl)c2Cl)cc(F)c1CNCCO (stereo not shown)"
  targetOrTestSystem: "PD-1/PD-L1 (Homo sapiens, UniProt Q9NZQ7)"
  pIC50: "> 8.00"
- compound: "CC(=O)NCCNC1CCCn2nc(C(=O)Nc3cccc(-c4cccc(-c5nc6cc(CN7CC[C@@H](C(=O)O)C7)cc(C#N)c6o5)c4C)c3C)cc21 (stereo partly shown)"
  targetOrTestSystem: "PD-1/PD-L1 (Homo sapiens, UniProt Q9NZQ7)"
  pIC50: "> 8.00"
- compound: "O=C(Nc1cccc(-c2cccc(Nc3nc(C(F)F)nc4cc(CN5CC[C@@H](O)C5)cnc34)c2Cl)c1Cl)c1cc2n(n1)CCC[C@H]2N1CCC(O)CC1"
  targetOrTestSystem: "PD-1/PD-L1 (Homo sapiens, UniProt Q9NZQ7)"
  pIC50: "7.00 to 8.00"
- compound: "CC(C)(N[C@H]1CCCn2nc(C(=O)Nc3cccc(-c4cccc(Nc5nccc6nccnc56)c4Cl)c3Cl)cc21)C(=O)O"
  targetOrTestSystem: "PD-1/PD-L1 (Homo sapiens, UniProt Q9NZQ7)"
  pIC50: "7.00 to 8.00"
- compound: "Cc1c(Nc2nccc3cc(CN4CC[C@@H](O)C4)cnc23)cccc1-c1cccc(-c2cc3n(n2)CCCC3N2CC[C@@H](O)C2)c1C (stereo partly shown)"
  targetOrTestSystem: "PD-1/PD-L1 (Homo sapiens, UniProt Q9NZQ7)"
  pIC50: "> 8.00"
- compound: "O=C(Nc1cccc(-c2cccc(NC(=O)c3cc4n(n3)CCCC4N3CC[C@@H](C(=O)O)C3)c2Cl)c1Cl)c1ccc(CNCCO)cn1 (stereo partly shown)"
  targetOrTestSystem: "PD-1/PD-L1 (Homo sapiens, UniProt Q9NZQ7)"
  pIC50: "> 8.00"
- compound: "O=C(Nc1cccc(-c2cccc(NC(=O)c3cc4n(n3)CCCC4NCCO)c2Cl)c1Cl)c1ccc(CNCCO)cn1 (stereo not shown)"
  targetOrTestSystem: "PD-1/PD-L1 (Homo sapiens, UniProt Q9NZQ7)"
  pIC50: "> 8.00"
- compound: "Cc1c(NC(=O)c2cc3n(n2)CCCC3N2CCC(O)CC2)cccc1-c1cccc(Nc2nc(C(F)F)nc3cc(CN4CC[C@@H](O)C4)cnc23)c1C (stereo partly shown)"
  targetOrTestSystem: "PD-1/PD-L1 (Homo sapiens, UniProt Q9NZQ7)"
  pIC50: "7.00 to 8.00"
- compound: "Cc1nc(Nc2cccc(-c3cccc(NC(=O)c4cc5n(n4)CCC[C@@H]5NC(C)(C)C(=O)O)c3Cl)c2Cl)c2ncccc2n1"
  targetOrTestSystem: "PD-1/PD-L1 (Homo sapiens, UniProt Q9NZQ7)"
  pIC50: "7.00 to 8.00"
- compound: "CC(=O)NCCNC1CCCn2nc(C(=O)Nc3cccc(-c4cccc(NC(=O)c5ccc(CNCCO)cn5)c4Cl)c3Cl)cc21 (stereo not shown)"
  targetOrTestSystem: "PD-1/PD-L1 (Homo sapiens, UniProt Q9NZQ7)"
  pIC50: "> 8.00"
- compound: "Cc1c(Nc2nccc3cc(CN4CC[C@@H](O)C4)cnc23)cccc1-c1cccc(NC(=O)c2cc3n(n2)CCCC3N2CC[C@@H](O)C2)c1Cl (stereo partly shown)"
  targetOrTestSystem: "PD-1/PD-L1 (Homo sapiens, UniProt Q9NZQ7)"
  pIC50: "> 8.00"
- compound: "O=C(Nc1cccc(-c2cccc(Nc3nc(C(F)F)nc4cc(CN5CC[C@@H](O)C5)cnc34)c2Cl)c1Cl)c1cc2n(n1)CCCC2N1CC[C@@H](O)C1 (stereo partly shown)"
  targetOrTestSystem: "PD-1/PD-L1 (Homo sapiens, UniProt Q9NZQ7)"
  pIC50: "7.00 to 8.00"
- compound: "O=C(O)CN[C@H]1CCCn2nc(C(=O)Nc3cccc(-c4cccc(NC(=O)c5ccc(CNCCO)cn5)c4Cl)c3Cl)cc21"
  targetOrTestSystem: "PD-1/PD-L1 (Homo sapiens, UniProt Q9NZQ7)"
  pIC50: "> 8.00"
- compound: "COc1nc(-c2cccc(-c3cccc(-c4cc5n(n4)CCCC5NCC(=O)O)c3C)c2C)cnc1CNC[C@@H]1CCC(=O)N1 (stereo partly shown)"
  targetOrTestSystem: "PD-1/PD-L1 (Homo sapiens, UniProt Q9NZQ7)"
  pIC50: "7.00 to 8.00"
- compound: "O=C(Nc1cccc(-c2cccc(Nc3nccc4cc(CN5CC[C@@H](O)C5)cnc34)c2Cl)c1Cl)c1cc2n(n1)CCCN2CCO"
  targetOrTestSystem: "PD-1/PD-L1 (Homo sapiens, UniProt Q9NZQ7)"
  pIC50: "7.00 to 8.00"

Reference for the values: patent EP4755888A1
